Taken from PubChem BioAssay (NCI).

- Test system: SF-295 CNS
- PROTOCOL SUMMARY: NCI-60 one-dose screen, 48 h
- EXPERIMENTAL CONDITIONS: 10 µM unless noted
Compounds without any hit were thinned out: in the full panel of roughly 83,000, 20% have a hit. Activity calls are given as the source filed them. How the source made its calls: active means growth percent below 10; inactive means the rest.
Pick from yes = active, no = inactive when you respond.

INPUT: Short answer needed: outcome of this test for CCCCNC(=S)Nc1ccc(OCc2nc3ccc(Cl)cc3[nH]2)cc1 ?
OUTPUT: no

INPUT: Short answer needed: outcome of this test for N#C/C(=C/c1ccc([N+](=O)[O-])cc1)c1nnc(NC(=O)c2ccc(-n3c(=O)[nH]c4ccccc4c3=O)cc2)s1 ?
OUTPUT: no

INPUT: Short answer needed: outcome of this test for CCCN(CCC)S(=O)(=O)c1ccc(C(=O)O)cc1.CCCN(CCC)S(=O)(=O)c1ccc(C(=O)O)cc1.[Cl][Pt+2][Cl].[NH2-].[NH2-] ?
OUTPUT: no

INPUT: Short answer needed: outcome of this test for O=C(N/N=C/c1ccc(-c2cccc([N+](=O)[O-])c2)s1)c1[nH]c2ccc(Br)cc2c1-c1ccccc1 ?
OUTPUT: no

INPUT: Short answer needed: outcome of this test for Cc1ccc(C(=O)Nc2cc(-n3ccnc3C)cc(C(F)(F)F)c2)cc1C#Cc1cnc2cccnn12 ?
OUTPUT: yes

INPUT: Short answer needed: outcome of this test for Clc1ccc(CNc2nc(SCCN3CCOCC3)nc3c2cnn3CC(Cl)c2ccc(Br)cc2)cc1 (centres undefined) ?
OUTPUT: no

INPUT: Short answer needed: outcome of this test for CCOC(=O)/C(F)=C/C1CC1C(c1ccccc1)c1ccccc1 (centres undefined) ?
OUTPUT: no

INPUT: Short answer needed: outcome of this test for Cn1ncc2c(N)nc(Oc3ccccc3-c3ccccc3)nc21 ?
OUTPUT: no

INPUT: Short answer needed: outcome of this test for CCN1CCN(Cc2ccc(C(=O)Nc3cccc(Nc4ccc5c(OC)cccc5n4)c3)cc2C(F)(F)F)CC1 ?
OUTPUT: yes

INPUT: Short answer needed: outcome of this test for Fc1ccccc1CNc1nc(SCCN2CCOCC2)nc2c1cnn2CC(Cl)c1ccc(Br)cc1 (centres undefined) ?
OUTPUT: yes

INPUT: Short answer needed: outcome of this test for COc1ccc2nc(NC(=O)c3ccc(N(C)C)cc3)sc2c1 ?
OUTPUT: no

INPUT: Short answer needed: outcome of this test for CCc1ccccc1NC(=O)N/C(N)=N/c1nc2ccccc2s1 ?
OUTPUT: yes

INPUT: Short answer needed: outcome of this test for COc1cccc(-c2ccc(/C=N/NC(=O)c3[nH]c4ccc(Br)cc4c3-c3ccccc3)s2)c1 ?
OUTPUT: yes

INPUT: Short answer needed: outcome of this test for CCOC(=O)c1ccc(NC(=S)NC(=O)c2ccc(NC(=O)C(C)C)cc2OC)cc1 ?
OUTPUT: no
